Listed next: entries and their corresponding Osmolatität bei 37°C und 300 mg I/ml.
# assay_summary: Osmolality of aqueous solution
# Format: physicochemical

compound | Osmolatität bei 37°C und 300 mg I/ml [mOs/kg]
O=C(NCCO)c1c(I)c(C(=O)NCC(O)CO)c(I)c(N(CC(O)CO)C(=O)CC(=O)N(CC(O)CO)c2c(I)c(C(=O)NCCO)c(I)c(C(=O)NCC(O)CO)c2I)c1I (centres unmarked) [Beispiel 4] | 190
CN(C(=O)C(=O)C(=O)N(C)c1c(I)c(C(=O)NCC(O)CO)c(I)c(C(=O)NCC(O)CO)c1I)c1c(I)c(C(=O)NCC(O)CO)c(I)c(C(=O)NCC(O)CO)c1I (centres unmarked) [Beispiel 13] | 160
O=C(NCCO)c1c(I)c(C(=O)NCC(O)CO)c(I)c(N(CCO)C(=O)C(O)C(=O)N(CCO)c2c(I)c(C(=O)NCCO)c(I)c(C(=O)NCC(O)CO)c2I)c1I (centres unmarked) [Beispiel 10] | 170
O=C(NCCO)c1c(I)c(C(=O)NCC(O)CO)c(I)c(N(CC(O)CO)C(=O)C(O)C(=O)N(CC(O)CO)c2c(I)c(C(=O)NCCO)c(I)c(C(=O)NCC(O)CO)c2I)c1I (centres unmarked) [Beispiel 11] | 210
CC(=O)N(CC(O)CN(C(C)=O)c1c(I)c(C(=O)NCC(O)CO)c(I)c(C(=O)NCC(O)CO)c1I)c1c(I)c(C(=O)NCC(O)CO)c(I)c(C(=O)NCC(O)CO)c1I (centres unmarked) [IODIXANOL, Iodixanol, reference compound] | 200
O=C(NCCO)c1c(I)c(C(=O)NCC(O)CO)c(I)c(N(CCO)C(=O)CC(=O)N(CCO)c2c(I)c(C(=O)NCCO)c(I)c(C(=O)NCC(O)CO)c2I)c1I (centres unmarked) [Beispiel 3] | 160
CN(C(=O)C(O)C(=O)N(C)c1c(I)c(C(=O)NCC(O)CO)c(I)c(C(=O)NCC(O)CO)c1I)c1c(I)c(C(N)=O)c(I)c(C(=O)NCC(O)CO)c1I (centres unmarked) [Beispiel 7] | 170
NC(=O)c1c(I)c(C(=O)NCC(O)CO)c(I)c(N(CC(O)CO)C(=O)C(O)C(=O)N(CC(O)CO)c2c(I)c(C(N)=O)c(I)c(C(=O)NCC(O)CO)c2I)c1I (centres unmarked) [Beispiel 12] | 240

Values were extracted from patent EP0673922A1.
